test: melting temperature; fluorescence melt of hairpins on a sequencing array, two-state fit, raised by 9.35 °C to match UV melts; conditions: sodium 0.088 M
So basically, the class depends on measured Tm, and the ranges are range A = under 40 °C, range B = from 40 °C up to 50 °C, range C = 50 °C and over

1. GGGCAAGGAAACTTGCTC (.(((((....))))).) | range C
2. GGAAGAGGAAACTCCTCC (((.(((....))).))) | range A
3. GTCTACGGAAACATAGAC (((((.(....).))))) | range A

# bin label for GCTCTGCGAAAGCCTAGC (((..((....))..)))
range A

Try this sequence too: GTATGTGGAAACACATGC (.(((((....))))).)
range B

Try this sequence too: AGGATGAAAATCCT (((((....)))))
range B

Try this sequence too: GTTTGCACGAAAGTGAAC (((..(((....))))))
range A

Try this sequence too: GCCGTCGAAAGACACGGC ((((((....)))..)))
range C

Try this sequence too: GATCTTCTCGAAGATC ((((((....))))))
range C

Try this sequence too: GTCAGTGGAAACATTGAC ((((.((....)).))))
range B

Try this sequence too: GCATAGGGAAACTTATGC (((((.(....).)))))
range B

Try this sequence too: GCAATTGAAAAATTGC ((((((....))))))
range C

Try this sequence too: GATCTCATTGAGATC ((((((...))))))
range C

Try this sequence too: GATAGACCGAAAGGTATC (((..(((....))))))
range A

Try this sequence too: GATCCGTTGCGGATC ((((((...))))))
range C
